Reference for the values: paper PMC2756588

Biological target: Sho1, P40073
Sequence (P40073 287-367): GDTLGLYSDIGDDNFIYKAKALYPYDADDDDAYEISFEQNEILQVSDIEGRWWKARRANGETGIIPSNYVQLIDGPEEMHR
Assay: SPOT array
Conditions: median of control spots 1148
metricName: SPOT intensity

Consider the reported SPOT intensity for these binders:
{"binder": "YSRKKLPVVLSKMTL", "obsValue": 47}
{"binder": "SHRLWLYAAPKRPKT", "obsValue": 39}
{"binder": "QTMRQAPKRPDADVA", "obsValue": 21}

Answer with the recorded SPOT intensity for the binder listed here: AKDLIVPRRPEWNEG
1570

Answer with the recorded SPOT intensity for the binder listed here: PSRRDSLSIPRAVDA
13

Answer with the recorded SPOT intensity for the binder listed here: RPKRRAPPPVPKKPS
487
